system: SR; assay: NCI tumour cell line growth inhibition, 48 h
The source made the active and inactive calls. No stated cut-off is given here; in the data, active = GI50 up to about 1.1 µM and inactive = higher.
Catalogue of GI50 values

// below: answered compounds
Q: So what does the record say about GI50 for CN(C)c1ccc(/C=C2\C=Cc3ccccc32)cc1 ?
Ans: 32.4 µM (inactive)

Q: So what does the record say about GI50 for COC(=O)CC(c1cn(S(=O)(=O)c2ccc(C)cc2)c2ccccc12)C1C[C@@H](C(=O)OC)N(C(=O)OC(C)(C)C)C1=O (stereo partly drawn) ?
Ans: 3.08 µM (inactive)

Q: So what does the record say about GI50 for COc1cccc(/C=C2\SC(=S)N(/C=C3\C(=O)Oc4ccccc4C3=O)C2=O)c1O ?
Ans: 30.6 µM (inactive)

Q: So what does the record say about GI50 for COc1ccc(-c2cc(-c3ccco3)c(C#N)c(=S)n2C2OC(COC(C)=O)C(OC(C)=O)C(OC(C)=O)C2OC(C)=O)cc1 (stereo not drawn) ?
Ans: > 10 µM (inactive)

Q: So what does the record say about GI50 for CCCCCCCCCCCCCCCCCCNc1ccn(C2OC(COP(=O)(O)OCC(COP(=O)(O)OCC3OC(n4cc(C)c(=O)[nH]c4=O)CC3N=[N+]=[N-])OCCCCCCCCCCCCCCCCCC)C(O)C2O)c(=O)n1 (stereo not drawn) ?
Ans: > 100 µM (inactive)

Further cases:
Q: So what does the record say about GI50 for O=C(O)CNC(=O)C(CSC(=O)OCC1c2ccccc2-c2ccccc21)NC(=O)CCC(NC(=O)OCC1c2ccccc2-c2ccccc21)C(=O)O (stereo not drawn) ?
Ans: 3.49 µM (inactive)

Q: So what does the record say about GI50 for CN1N=CSC12C(=O)N(c1ccc(Cl)cc1)C(=O)N2c1ccc(Cl)cc1 (stereo not drawn) ?
Ans: 2.75 µM (inactive)

Q: So what does the record say about GI50 for CC1(O)CC2(O)C=CC3=C(C(=O)c4cccc(O)c4C3=O)C2(O)C(=O)C1O (stereo not drawn) ?
Ans: 2.3 µM (inactive)

====

system: DU-145; assay: NCI tumour cell line growth inhibition, 48 h
Activity calls are given as the source filed them. Cut-off read from the data, not from the text of the source: active = GI50 up to about 1.1 µM and inactive = higher.
Please answer using one outcome listed in 1 for active, 0 for inactive

Q: Name the outcome recorded for Oc1ccc(/C=C/c2cc(O)cc3c2C(c2cc(O)cc(O)c2)C(c2ccc(O)c(O)c2)O3)cc1 (stereo not drawn) in the assay.
Ans: 0

Q: Name the outcome recorded for Cc1ccc(C(=O)/C=C2\Nc3ccccc3S\C2=N\CS(=O)(=O)c2ccc(C)cc2)cc1 in the assay.
Ans: 0

Q: Name the outcome recorded for O=C1OCC2OC(=O)c3cc(O)c(O)c(O)c3-c3c(O)c(O)c(O)c4c3C(=O)OC(C2OC(=O)c2cc(O)c(O)c(O)c2-c2c1cc(O)c(O)c2O)C1OC(=O)C2C4=C(O)C(=O)C23Oc2cc(O)c4c(c2[C@H]13)O[C@H](c1ccc(O)c(O)c1)[C@@H](O)C4 (stereo partly drawn) in the assay.
Ans: 0

Q: Name the outcome recorded for CCOC(=O)Nc1cc2c(c(N)n1)N=C(c1ccc3ccccc3c1)CN2 in the assay.
Ans: 1

Q: Name the outcome recorded for O=C1Nc2ccc(S(=O)(=O)O)cc2/C1=C1/Nc2ccc(Br)cc2C1=O in the assay.
Ans: 0

Q: Name the outcome recorded for Cn1c(=O)cc(/N=N\c2ccc(Cl)c(Cl)c2)[nH]c1=O in the assay.
Ans: 0

Q: Name the outcome recorded for CCOC(=O)C(C(=O)OCC)=C1NC2(c3ccccc3Nc3ccc(C)cc32)C(C(=O)OC)S1 (stereo not drawn) in the assay.
Ans: 0

Then there is this compound:
Q: Name the outcome recorded for CC(C)c1ccc(C(O)(C(=O)O)c2ccc(C(C)C)cc2)cc1 in the assay.
Ans: 0

====

tested on: SK-MEL-2; assay: NCI tumour cell line growth inhibition, 48 h
The source made the active and inactive calls. Rule as the data show it: active = GI50 up to about 1.1 µM and inactive = higher.
endpoint label: GI50

Q: So what does the record say about GI50 for CCCC/C=C1\CCC(CN2CCCC2)C1=O (stereo not given) ?
Ans: 16 µM (inactive)

Further cases:
Q: So what does the record say about GI50 for Nc1nc[n+](Cc2ccccc2CCO)c2[nH]cnc12 ?
Ans: > 100 µM (inactive)

Q: So what does the record say about GI50 for CN(C)c1ccc(C=c2c3cc(O)ccc3n3c2cc(-c2ccccc2)[n+]3C)cc1 ?
Ans: 1.27 µM (inactive)

Q: So what does the record say about GI50 for CC(=O)Nc1nc(Cl)cc(NCC2(CO)CCC2)n1 ?
Ans: > 100 µM (inactive)

Q: So what does the record say about GI50 for O=C(N/C(=C\c1ccc(/C=C(\NC(=O)c2ccccc2)c2nc3cc([N+](=O)[O-])ccc3[nH]2)cc1)c1nc2cc([N+](=O)[O-])ccc2[nH]1)c1ccccc1 ?
Ans: 14.9 µM (inactive)

====

Catalogue of GI50 values
system: SF-539; test: NCI tumour cell line growth inhibition, 48 h
Activity calls are given as the source filed them. No stated cut-off is given here; in the data, active = GI50 up to about 1.1 µM and inactive = higher.

// below: answered compounds
Q: So what does the record say about GI50 for COCn1c(C)c(C)c2c(=O)oc(N(C)C)nc21 ?
Ans: > 100 µM (inactive)

Q: So what does the record say about GI50 for C#CC1(O)CCC2[C@@H]3CCc4cc(Oc5nc(F)nc(-c6c7ccccc7cn6C)n5)ccc4C3CC[C@@]21C (some centres not stated) ?
Ans: > 100 µM (inactive)

Q: So what does the record say about GI50 for CCOC(OCC)C(CCc1ccccc1)c1c(N)nc(N)[nH]c1=O (configuration not stated) ?
Ans: > 100 µM (inactive)

Q: So what does the record say about GI50 for O=C1CC2(CCC(O)(c3cccs3)C(C(=O)c3cccs3)C2)C(=O)c2ccccc2N1 (configuration not stated) ?
Ans: > 100 µM (inactive)

Q: So what does the record say about GI50 for O=C(N/C(=C\c1ccc(/C=C(\NC(=O)c2ccccc2)c2nc3cc([N+](=O)[O-])ccc3[nH]2)cc1)c1nc2cc([N+](=O)[O-])ccc2[nH]1)c1ccccc1 ?
Ans: 80.4 µM (inactive)

Further cases:
Q: So what does the record say about GI50 for Cc1cccc2c(O)c3c(O)cc(O)cc3nc12 ?
Ans: 6.12 µM (inactive)

Q: So what does the record say about GI50 for Cc1cc2ccc(OC(=O)c3ccc(NC(=N)N)cc3)cc2oc1=O ?
Ans: 24.5 µM (inactive)

Q: So what does the record say about GI50 for O=C1C=CC(=O)c2c(NCC3CC3)ccc(NCC3CC3)c21 ?
Ans: 25.5 µM (inactive)

Q: So what does the record say about GI50 for CC(=O)Nc1ccc(CNc2cc(=O)n(C)c(=O)[nH]2)cc1 ?
Ans: > 100 µM (inactive)

Q: So what does the record say about GI50 for O=C(Cn1c(C(=O)/C=C/c2ccc(Cl)cc2)nc2ccccc21)c1ccc(Cl)cc1 ?
Ans: 18.3 µM (inactive)

Q: So what does the record say about GI50 for COc1cc2c(cc1OC)C(Cc1ccc(Oc3cc(CC4c5cc(OC)c(OC)cc5CCN4C)ccc3O)cc1)N(C)CC2 (configuration not stated) ?
Ans: 16.3 µM (inactive)

Q: So what does the record say about GI50 for CCOC(=O)C12CCSC1C1(C#N)C(C#N)=CC2(N=P(c2ccccc2)(c2ccccc2)c2ccccc2)n2c(=O)n(-c3ccccc3)c(=O)n21 (configuration not stated) ?
Ans: 73.6 µM (inactive)

====

tested on: M14; test: NCI tumour cell line growth inhibition, 48 h
Calls of active or inactive are those of the source. No stated cut-off is given here; in the data, active = GI50 up to about 1.1 µM and inactive = higher.
Please answer using one outcome listed in True (active), False (inactive)

Q: Name the outcome recorded for CC(C)(C)S(=O)OC12CC3CC(CC(C3)C1)C2 (centres undefined) in the assay.
Ans: False

Q: Name the outcome recorded for CC1(C)OCC(C2OC3OC(C)(C)OC3C2N)O1 (centres undefined) in the assay.
Ans: False

Q: Name the outcome recorded for CCCN1CN(C(C(=O)N[C@@H]2C(=O)N3C(C(=O)O)=C(C)CSC23)c2ccc(O)cc2)CSC1=S (some centres undefined) in the assay.
Ans: False

Q: Name the outcome recorded for CC(C)CC(NC(=O)C(Cc1ccccc1)NC(=O)[C@H]1CC[C@H](NC(=O)C(Cc2ccc(OC(C)(C)C)cc2)NC(=O)OC(C)(C)C)C1)C(N)=O (some centres undefined) in the assay.
Ans: False

====

test system: OVCAR-3; test: NCI tumour cell line growth inhibition, 48 h
Calls of active or inactive are those of the source. Rule as the data show it: active = GI50 up to about 1.1 µM and inactive = higher.
Catalogue of GI50 values

// below: answered compounds
Q: Provide the documented GI50 with OVCAR-3 as the system for COc1cc(OC)c2c(=O)c(OC)c(-c3ccc4c(c3)OCO4)oc2c1
Ans: > 100 µM (inactive)

Q: Provide the documented GI50 with OVCAR-3 as the system for COC(=O)Cc1c2n(c3ccccc13)C(=O)N1c3ccccc3C(CC(=O)OC)C21 (stereo not drawn)
Ans: 55.7 µM (inactive)

Q: Provide the documented GI50 with OVCAR-3 as the system for O=C1OCC2OC(=O)c3cc(O)c(O)c(O)c3-c3c(O)c(O)c(O)c4c3C(=O)OC(C2OC(=O)c2cc(O)c(O)c(O)c2-c2c1cc(O)c(O)c2O)C1OC(=O)C2C4=C(O)C(=O)C23Oc2cc(O)c4c(c2[C@H]13)O[C@H](c1ccc(O)c(O)c1)[C@@H](O)C4 (stereo partly drawn)
Ans: 30.1 µM (inactive)

Further cases:
Q: Provide the documented GI50 with OVCAR-3 as the system for CC1=NN(C(=O)c2ccncc2)C(=O)C1/N=N/c1ccc(F)cc1 (stereo not drawn)
Ans: > 100 µM (inactive)

Q: Provide the documented GI50 with OVCAR-3 as the system for NCCNc1cccc2ccccc12
Ans: > 100 µM (inactive)

Q: Provide the documented GI50 with OVCAR-3 as the system for O=C(Cc1nc2ccc([N+](=O)[O-])cc2nc1O)C(=O)Nc1cc(Cl)c(Cl)cc1Cl
Ans: > 100 µM (inactive)

Q: Provide the documented GI50 with OVCAR-3 as the system for O=C1Nc2ccc(S(=O)(=O)O)cc2/C1=C1/Nc2ccc(Br)cc2C1=O
Ans: > 100 µM (inactive)

Q: Provide the documented GI50 with OVCAR-3 as the system for COC(=O)[C@H](Cc1ccccc1)NC(=O)c1ccc(CNC(=O)/C=C/c2cccc(Oc3ccccc3)c2)cc1
Ans: 11.8 µM (inactive)
